Where do these numbers come from? They come from PubChem BioAssay AID1159580.

experiment: chemical genetic growth profiling, strain panel (AID 1159580);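 note: tested at 20 µM; growth read once vehicle control cultures reached saturation at 30 °C; 1 = growth at the plate median or of vehicle wells; lower values mean less growth of the strain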; settings: S. cerevisiae deletion strains, growth OD, locus YBR229C, strain ROT2, hits give low values
Screen size: about 5,500 compounds; about 2,000 (36%) were called active. Another 18% or so got no clear call; they are omitted. The list shows a part of the results.
So I've got a bunch of molecules here, and I need their normalized growth values.
Numbers only.

# example entries with known answers
{"MOLECULE": "CC[C@H]1OC(=O)[C@H](C)[C@@H](O[C@H]2C[C@@](C)(OC)[C@@H](O)[C@H](C)O2)[C@H](C)[C@@H](O[C@@H]2O[C@H](C)C[C@H](N(C)C)[C@H]2O)[C@](C)(O)C[C@@H](C)/C(=N/OCOCCOC)[C@H](C)[C@@H](O)[C@]1(C)O", "normalized growth": 1.01}
{"MOLECULE": "CC(C)N=C(N)N=C(N)Nc1ccc(Cl)cc1", "normalized growth": 1.01}
{"MOLECULE": "NC(=NCCCCCCN=C(N)N=C(N)Nc1ccc(Cl)cc1)N=C(N)Nc1ccc(Cl)cc1", "normalized growth": 0.0485}
{"MOLECULE": "Cc1cc(C(F)(F)F)n2nc(-c3ccc(C(C)(C)C)cc3)cc2n1", "normalized growth": 1.02}
{"MOLECULE": "CC1CN=C(NC2CCCCC2)S1 (centres undefined)", "normalized growth": 1}

// for each molecule below, give its normalized growth
1. COC(=O)C(O)[C@H]1C(C)(C)[C@@H](OC(C)=O)[C@@H]2CC3=C4CC(=O)O[C@@H](c5ccoc5)[C@]4(C)CCC3[C@@]1(C)C2=O (some centres undefined)
2. COc1ccc(NS(=O)(=O)c2ccc(N)cc2)nn1
3. CC(C)Cn1c(=O)n(C)c(=O)c2[nH]cnc21
4. CC(=O)OCCCCN1C(=O)c2ccccc2C1=O

0.996
1.02
0.982
1

###

experiment: chemical genetic growth profiling, strain panel (AID 1159580);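 note: tested at 20 µM; growth read once vehicle control cultures reached saturation at 30 °C; 1 = growth at the plate median or of vehicle wells; lower values mean less growth of the strain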; conditions: S. cerevisiae deletion strains, growth OD, locus YNR030W, strain Alg12
The campaign covered roughly 5,500 compounds. About 2,000 (36%) were called active. About 18% were inconclusive and are not listed. Cut-off read from the data, not from the text of the source: active = normalized growth mostly below about 0.91 (no sharp cut-off); inconclusive = no clear call, values can overlap the other calls; inactive = mostly above about 0.92. This is one part of the list.
Write down the outcome that applies. Available outcomes: active, inactive

{"MOLECULE": "CCCc1ccc(-c2nc(-c3ccc(C)cc3)no2)cc1", "CLASS_NAME": "inactive"}
{"MOLECULE": "FC(F)(F)c1cc(-c2ccco2)nc2cc(-c3ccco3)nn12", "CLASS_NAME": "active"}
{"MOLECULE": "N#Cc1cc(I)c(C#N)c(I)c1", "CLASS_NAME": "inactive"}
{"MOLECULE": "Nc1ccccc1C(=O)NCCc1ccc(Cl)cc1", "CLASS_NAME": "inactive"}
{"MOLECULE": "CCCc1ccc(/C(C)=N\\O)cc1", "CLASS_NAME": "inactive"}
{"MOLECULE": "O=C1CSC(c2cccnc2)N1c1ccc(Cl)cc1 (configuration not stated)", "CLASS_NAME": "inactive"}

Here is the next item to consider.
Could you please tell me the result logged for O=C(Nc1cc(-c2ccccc2)[nH]n1)c1ccccc1 in this assay?
active

###

assay: chemical genetic growth profiling, strain panel (AID 1159580);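 note: tested at 20 µM; growth read once vehicle control cultures reached saturation at 30 °C; 1 = growth at the plate median or of vehicle wells; lower values mean less growth of the strain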; conditions: S. cerevisiae deletion strains, growth OD, locus YDR195W, strain ref2
Screen size: about 5,500 compounds; about 2,000 (36%) were called active. About 18% were inconclusive and are not listed. No stated cut-off is given here; in the data, active means normalized growth mostly below about 0.91 (no sharp cut-off); inconclusive means no clear call, values can overlap the other calls; inactive means mostly above about 0.92. Some of the results follow.
Write down the outcome that applies. Available outcomes: active, inactive

{"MOLECULE": "CON", "CLASS_NAME": "inactive"}

Could you please tell me the result logged for O=C1NS(=O)(=O)c2ccccc21 in this assay?
inactive

Record: COc1cc(O)ccc1C(C)=O
inactive

Record: O=C(O)[C@H]1/C(=C/CO)O[C@@H]2CC(=O)N21
inactive

Record: CC(=O)OC[C@@]1(O)C[C@@]23CCC4c5ccoc5CC[C@]4(C)C2CC[C@@H]1C3 (stereo partly drawn)
inactive

Record: COc1ccc(CC(=O)c2ccc(O)cc2O)cc1
active

Record: CC(C)=CCC/C(C)=C/CO
inactive

Record: CN1CCN(C2=Nc3cc(Cl)ccc3Nc3ccccc32)CC1
inactive
